# assay.explanation: Metabolic stability evaluation in rat liver microsomes
# Type: in vitro ADME
# test.settings: SD, pH 7.4; rat liver microsomes 0.5 mg/mL, compound 1 μM, NADPH, 37° C.; read-out: CLint, experiment in rat liver microsomes
# Procedure: Experiments in microsomes: Human liver microsomes: 0.5 mg/mL, Xenotech; Rat liver microsomes: 0.5 mg/mL, Xenotech; Coenzyme (NADPH/NADH): 1 mM, Sigma Life Science; Magnesium chloride: 5 mM, 100 mM phosphate buffer (pH 7.4). […] Incubation of the samples: The stock solution of the respective compounds was respectively diluted to 0.25 mM with an aqueous solution containing 70% acetonitrile, which were used as working solutions, ready for use. […]
assay.readout: microsomal CLint at 1 μM (µL/min/mg)
Give bare numbers, in µL/min/mg.

# count of solved cases: 4
| compound | microsomal CLint at 1 μM [µL/min/mg] |
| --- | --- |
| [2H]C([2H])(C(C)C)[C@]([2H])(NC(=O)CNC(=O)c1cc(Cl)ccc1Cl)B(O)O | 97.8 |
| CC(C)C[C@H](NC(=O)CNC(=O)c1cc(Cl)ccc1Cl)B(O)O [Ixazomib, reference compound] | 97.3 |
| [2H][C@@](CC(C)C)(NC(=O)CNC(=O)c1cc(Cl)ccc1Cl)B(O)O | 90.5 |
| [2H]C([2H])(NC(=O)c1cc(Cl)ccc1Cl)C(=O)N[C@@H](CC(C)C)B(O)O | 81.3 |

Below: the item to evaluate.
Return reported microsomal CLint at 1 μM; argument: [2H]C([2H])(NC(=O)c1cc(Cl)ccc1Cl)C(=O)N[C@@]([2H])(CC(C)C)B(O)O
90

----------
Please respond with reported microsomal CLint at 1 μM for every item in the list.
# assay.explanation: Metabolic stability evaluation in human liver microsomes
# Type: in vitro ADME
# test.settings: pH 7.4; human liver microsomes 0.5 mg/mL, compound 1 μM, NADPH, 37° C.; read-out: CLint, experiment in human liver microsomes
Answers are plain numbers, in µL/min/mg.

| molecule | observed.value |
| --- | --- |
| [2H][C@@](CC(C)C)(NC(=O)CNC(=O)c1cc(Cl)ccc1Cl)B(O)O | 46.5 |
| CC(C)C[C@H](NC(=O)CNC(=O)c1cc(Cl)ccc1Cl)B(O)O [Ixazomib, reference compound] | 49.4 |
| [2H]C([2H])(NC(=O)c1cc(Cl)ccc1Cl)C(=O)N[C@@]([2H])(CC(C)C)B(O)O | 48.3 |
| [2H]C([2H])(C(C)C)[C@]([2H])(NC(=O)CNC(=O)c1cc(Cl)ccc1Cl)B(O)O | 47.3 |

Return reported microsomal CLint at 1 μM; argument: [2H]C([2H])(C(C)C)[C@H](NC(=O)CNC(=O)c1cc(Cl)ccc1Cl)B(O)O
47.3

----------
# assay.explanation: Metabolic stability evaluation in rat liver microsomes
# Format: in vitro ADME
# test.settings: SD, pH 7.4; rat liver microsomes 0.5 mg/mL, compound 1 μM, NADPH, 37° C.; read-out: t1/2, experiment in rat liver microsomes
Please respond with reported half-life at 1 μM for every item in the list.
Answers are plain numbers, in min.

# count of solved cases: 4
| molecule | unit.abbreviation | observed.value |
| --- | --- | --- |
| CC(C)C[C@H](NC(=O)CNC(=O)c1cc(Cl)ccc1Cl)B(O)O [Ixazomib, reference compound] | min | 14.3 |
| [2H]C([2H])(NC(=O)c1cc(Cl)ccc1Cl)C(=O)N[C@@]([2H])(CC(C)C)B(O)O | min | 15.4 |
| [2H][C@@](CC(C)C)(NC(=O)CNC(=O)c1cc(Cl)ccc1Cl)B(O)O | min | 15.3 |
| [2H]C([2H])(NC(=O)c1cc(Cl)ccc1Cl)C(=O)N[C@@H](CC(C)C)B(O)O | min | 17.1 |

Below: the item to evaluate.
Return reported half-life at 1 μM; argument: [2H]C([2H])(C(C)C)[C@]([2H])(NC(=O)CNC(=O)c1cc(Cl)ccc1Cl)B(O)O
14.2
